B1: HDV Ribozyme (parent)
chain: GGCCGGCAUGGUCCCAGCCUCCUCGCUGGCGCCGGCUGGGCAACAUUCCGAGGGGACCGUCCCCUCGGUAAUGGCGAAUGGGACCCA

variants of: B1; test: self-cleavage, relative activity (ratio to wild type); higher = more cleavage; co-transcriptional
Task for the reader: assign each of the following variants its reported self-cleavage.

Prompt: So what does the record say about self-cleavage for U12A G82C ?
Response: 0.302

Prompt: For the variant C30G G52C , what self-cleavage is on record?
Response: 0.133

Prompt: Look at this variant and give its reported self-cleavage. A16C G81A
Response: 0.489

Prompt: Look up self-cleavage: G29A U47A
Response: 0.148

Prompt: May I ask what self-cleavage has been recorded for G38U G67C ?
Response: 0.197

Prompt: Which self-cleavage is reported for this variant? C7A G35U
Response: 0.0906

Prompt: GET /values?readout=self-cleavage&item= G40A A71U
Response: 0.796

Prompt: Entry U9C G68U : reported self-cleavage = ?
Response: 0.655

Prompt: Which self-cleavage value belongs to G29C C63G ?
Response: 0.0489
